# target.desc: AEA-DA lipid probe targets in Neuro2a cells (Mus musculus)
# Sequence (Q8BP40 26-418): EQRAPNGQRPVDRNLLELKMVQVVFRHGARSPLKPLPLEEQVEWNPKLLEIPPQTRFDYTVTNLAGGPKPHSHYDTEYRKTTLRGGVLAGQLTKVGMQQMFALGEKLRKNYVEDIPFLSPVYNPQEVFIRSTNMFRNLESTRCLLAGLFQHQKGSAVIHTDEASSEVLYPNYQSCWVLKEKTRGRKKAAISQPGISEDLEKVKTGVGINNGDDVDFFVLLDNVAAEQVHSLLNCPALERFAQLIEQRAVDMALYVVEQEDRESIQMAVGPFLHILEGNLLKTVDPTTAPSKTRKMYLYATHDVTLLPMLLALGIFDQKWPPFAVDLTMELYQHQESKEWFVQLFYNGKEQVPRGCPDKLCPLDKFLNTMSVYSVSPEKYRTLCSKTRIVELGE
# cond: competitor 25 μM
Recorded SILAC ratio, Acp6, one value per entry.
Lab note: jot down the number only; don't add units.

O=C(/C=C/c1cccnc1)NCCCCC1CCN(C(=O)c2ccccc2)CC1 [FK-866, reference compound]; 1.2
CN1CCN(C(=O)c2[nH]c3ccc([N+](=O)[O-])cc3c2-c2ccccc2)CC1 [MJN228]; 1.5
CN1CCN(C(=O)c2c(-c3ccccc3)c3cc([N+](=O)[O-])ccc3n2C)CC1 [KML110]; 1.6

As a next step, examine the compound that follows.
Input: # get_value(readout='SILAC ratio, Acp6', item= C=CCN(C)CCCCCCOc1ccc(C(=O)c2ccc(Br)cc2)c(F)c1 [Ro 48-8071, reference compound] )
Output: 0.9

###

# target.desc: AEA-DA lipid probe targets in Neuro2a cells (Mus musculus, UniProt Q8BUV8)
# Sequence (Q8BUV8 34-551): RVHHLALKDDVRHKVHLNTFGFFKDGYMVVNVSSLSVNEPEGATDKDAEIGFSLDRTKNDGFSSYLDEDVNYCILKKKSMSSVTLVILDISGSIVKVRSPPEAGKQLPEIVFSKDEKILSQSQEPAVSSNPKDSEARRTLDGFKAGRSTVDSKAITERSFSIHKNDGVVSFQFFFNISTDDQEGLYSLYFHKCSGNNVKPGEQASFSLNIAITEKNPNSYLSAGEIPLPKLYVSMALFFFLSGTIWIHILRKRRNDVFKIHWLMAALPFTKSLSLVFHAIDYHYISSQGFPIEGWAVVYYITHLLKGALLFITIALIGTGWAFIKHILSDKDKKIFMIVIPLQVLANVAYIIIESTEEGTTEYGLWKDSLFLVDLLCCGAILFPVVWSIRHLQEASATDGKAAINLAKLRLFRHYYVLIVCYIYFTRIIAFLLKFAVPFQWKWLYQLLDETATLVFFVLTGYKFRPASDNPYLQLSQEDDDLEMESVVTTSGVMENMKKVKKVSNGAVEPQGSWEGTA
# cond: competitor 25 μM
Below is a list of entries, each paired with its recorded SILAC ratio, Gpr107 value.
The answer should be written as a number, with no unit following it.

Check out these entries, answers already filled in.
CN1CCN(C(=O)c2c(-c3ccccc3)c3cc([N+](=O)[O-])ccc3n2C)CC1; 1.5
CN1CCN(C(=O)c2[nH]c3ccc([N+](=O)[O-])cc3c2-c2ccccc2)CC1; 1.3
C=CCN(C)CCCCCCOc1ccc(C(=O)c2ccc(Br)cc2)c(F)c1 [Ro 48-8071, reference compound]; 1.8

Input: Quick one: SILAC ratio, Gpr107 for O=C(/C=C/c1cccnc1)NCCCCC1CCN(C(=O)c2ccccc2)CC1 [FK-866, reference compound] ?
Output: 1.0

###

Parameter: SILAC ratio, Ctsd. Scope: all listed entries.
# target.desc: AEA-DA lipid probe targets in Neuro2a cells (Mus musculus, UniProt P18242)
# Sequence (P18242 65-410): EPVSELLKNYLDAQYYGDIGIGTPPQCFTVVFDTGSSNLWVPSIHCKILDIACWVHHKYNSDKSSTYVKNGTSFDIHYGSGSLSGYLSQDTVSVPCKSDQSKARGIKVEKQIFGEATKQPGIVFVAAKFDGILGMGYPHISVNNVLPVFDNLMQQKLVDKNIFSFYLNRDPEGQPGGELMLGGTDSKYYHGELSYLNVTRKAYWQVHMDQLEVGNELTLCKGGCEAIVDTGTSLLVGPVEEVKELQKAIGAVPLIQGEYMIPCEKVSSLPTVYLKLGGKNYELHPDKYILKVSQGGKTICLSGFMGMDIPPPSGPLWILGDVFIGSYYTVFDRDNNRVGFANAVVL
# cond: competitor 25 μM
Please state the value as a number alone, without comment.

Solved entries (count: 3):
CN1CCN(C(=O)c2c(-c3ccccc3)c3cc([N+](=O)[O-])ccc3n2C)CC1; 1.4
O=C(/C=C/c1cccnc1)NCCCCC1CCN(C(=O)c2ccccc2)CC1 [FK-866, reference compound]; 1.0
C=CCN(C)CCCCCCOc1ccc(C(=O)c2ccc(Br)cc2)c(F)c1 [Ro 48-8071, reference compound]; 0.5

Input: Notebook: pull reported SILAC ratio, Ctsd for AEA-DA lipid probe targets in Neuro2a cells (Mus musculus, UniProt P18242), entry "CN1CCN(C(=O)c2[nH]c3ccc([N+](=O)[O-])cc3c2-c2ccccc2)CC1"
Output: 1.2

###

Reported SILAC ratio, Ephx1 is given for each of the following compounds.
# target.desc: AEA-DA lipid probe targets in Neuro2a cells (Mus musculus, UniProt Q9D379)
# Sequence (Q9D379 whole entry): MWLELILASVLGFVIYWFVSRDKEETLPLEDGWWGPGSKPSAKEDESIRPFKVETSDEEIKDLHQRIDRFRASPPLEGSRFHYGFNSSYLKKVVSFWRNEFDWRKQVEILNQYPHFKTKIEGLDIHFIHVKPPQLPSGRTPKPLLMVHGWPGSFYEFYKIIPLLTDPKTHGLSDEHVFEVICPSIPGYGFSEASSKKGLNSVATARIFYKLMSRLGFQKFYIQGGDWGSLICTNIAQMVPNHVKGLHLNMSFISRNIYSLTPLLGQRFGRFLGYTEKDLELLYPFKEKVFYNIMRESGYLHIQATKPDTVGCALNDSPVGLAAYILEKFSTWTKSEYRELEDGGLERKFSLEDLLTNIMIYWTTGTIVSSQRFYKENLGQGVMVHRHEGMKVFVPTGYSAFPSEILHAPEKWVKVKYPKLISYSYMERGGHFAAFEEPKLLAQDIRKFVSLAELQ
# cond: competitor 25 μM

Answered examples (3):
C=CCN(C)CCCCCCOc1ccc(C(=O)c2ccc(Br)cc2)c(F)c1 [Ro 48-8071, reference compound]; 2.4
O=C(/C=C/c1cccnc1)NCCCCC1CCN(C(=O)c2ccccc2)CC1 [FK-866, reference compound]; 1.4
CN1CCN(C(=O)c2c(-c3ccccc3)c3cc([N+](=O)[O-])ccc3n2C)CC1 [KML110]; 3.4

Input: GET /values?readout=SILAC ratio, Ephx1&system=AEA-DA lipid probe targets in Neuro2a cells (Mus musculus, UniProt Q9D379)&item= CN1CCN(C(=O)c2[nH]c3ccc([N+](=O)[O-])cc3c2-c2ccccc2)CC1 [MJN228]
Output: 3.8

###

Each item that follows carries a reported SILAC ratio Atp5f1.
# target.desc: AEA-DA lipid probe targets in Neuro2a cells (Mus musculus)
# cond: competitor 25 μM
Please reply with the number alone, leaving off any unit.

Input: Data request, read-out SILAC ratio Atp5f1, for "CN1CCN(C(=O)c2[nH]c3ccc([N+](=O)[O-])cc3c2-c2ccccc2)CC1"
Output: 1.5

Input: // query SILAC ratio Atp5f1 value for entry "CN1CCN(C(=O)c2c(-c3ccccc3)c3cc([N+](=O)[O-])ccc3n2C)CC1"
Output: 1.6

Input: Quick check: SILAC ratio Atp5f1 of C=CCN(C)CCCCCCOc1ccc(C(=O)c2ccc(Br)cc2)c(F)c1 [Ro 48-8071, reference compound] ?
Output: 1.0

Input: Fill in the blank: the reported SILAC ratio Atp5f1 of O=C(/C=C/c1cccnc1)NCCCCC1CCN(C(=O)c2ccccc2)CC1 [FK-866, reference compound] is ____.
Output: 1.1

###

# target.desc: AEA-DA lipid probe targets in Neuro2a cells (Mus musculus, UniProt Q8C7K6)
# Sequence (Q8C7K6 23-495): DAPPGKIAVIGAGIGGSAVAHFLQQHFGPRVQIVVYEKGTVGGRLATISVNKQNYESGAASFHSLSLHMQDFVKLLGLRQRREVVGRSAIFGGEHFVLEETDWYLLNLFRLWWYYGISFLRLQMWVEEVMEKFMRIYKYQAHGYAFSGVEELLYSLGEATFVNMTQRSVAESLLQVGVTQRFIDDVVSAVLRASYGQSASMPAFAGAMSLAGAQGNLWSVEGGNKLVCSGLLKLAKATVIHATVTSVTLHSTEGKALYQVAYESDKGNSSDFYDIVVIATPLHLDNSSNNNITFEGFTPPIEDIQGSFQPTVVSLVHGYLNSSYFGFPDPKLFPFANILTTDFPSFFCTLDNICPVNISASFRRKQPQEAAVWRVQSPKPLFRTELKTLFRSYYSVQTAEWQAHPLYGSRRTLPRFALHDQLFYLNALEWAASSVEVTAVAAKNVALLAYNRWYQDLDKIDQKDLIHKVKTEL
# cond: competitor 25 μM
Each entry below lists one item and its recorded SILAC ratio Pcyox11 value.
// return a plain number; no unit text

Reference set (3 entries):
O=C(/C=C/c1cccnc1)NCCCCC1CCN(C(=O)c2ccccc2)CC1 [FK-866, reference compound]; 1.3
CN1CCN(C(=O)c2c(-c3ccccc3)c3cc([N+](=O)[O-])ccc3n2C)CC1; 2.0
CN1CCN(C(=O)c2[nH]c3ccc([N+](=O)[O-])cc3c2-c2ccccc2)CC1; 1.8

Input: # query: SILAC ratio Pcyox11 of entry C=CCN(C)CCCCCCOc1ccc(C(=O)c2ccc(Br)cc2)c(F)c1 [Ro 48-8071, reference compound]
Output: 1.0

###

# target.desc: AEA-DA lipid probe targets in Neuro2a cells (Mus musculus)
# Sequence (P46638 1-218): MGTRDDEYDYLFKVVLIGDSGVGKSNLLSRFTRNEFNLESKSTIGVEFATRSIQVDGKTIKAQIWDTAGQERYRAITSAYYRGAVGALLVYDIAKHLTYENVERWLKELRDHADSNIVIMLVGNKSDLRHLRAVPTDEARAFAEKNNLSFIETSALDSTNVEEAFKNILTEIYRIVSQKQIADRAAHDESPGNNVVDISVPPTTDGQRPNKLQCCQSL
# cond: competitor 25 μM
endpoint.label: SILAC ratio, Rab11b
Just the number, please.

Answered cases to consult:
CN1CCN(C(=O)c2c(-c3ccccc3)c3cc([N+](=O)[O-])ccc3n2C)CC1; 1.5
CN1CCN(C(=O)c2[nH]c3ccc([N+](=O)[O-])cc3c2-c2ccccc2)CC1; 1.6
C=CCN(C)CCCCCCOc1ccc(C(=O)c2ccc(Br)cc2)c(F)c1 [Ro 48-8071, reference compound]; 1.3

Now for a further compound.
Input: Form field: reported SILAC ratio, Rab11b of O=C(/C=C/c1cccnc1)NCCCCC1CCN(C(=O)c2ccccc2)CC1 [FK-866, reference compound]
Output: 1.2

###

# target.desc: AEA-DA lipid probe targets in Neuro2a cells (Mus musculus, UniProt Q3U9G9)
# Sequence (Q3U9G9 whole entry): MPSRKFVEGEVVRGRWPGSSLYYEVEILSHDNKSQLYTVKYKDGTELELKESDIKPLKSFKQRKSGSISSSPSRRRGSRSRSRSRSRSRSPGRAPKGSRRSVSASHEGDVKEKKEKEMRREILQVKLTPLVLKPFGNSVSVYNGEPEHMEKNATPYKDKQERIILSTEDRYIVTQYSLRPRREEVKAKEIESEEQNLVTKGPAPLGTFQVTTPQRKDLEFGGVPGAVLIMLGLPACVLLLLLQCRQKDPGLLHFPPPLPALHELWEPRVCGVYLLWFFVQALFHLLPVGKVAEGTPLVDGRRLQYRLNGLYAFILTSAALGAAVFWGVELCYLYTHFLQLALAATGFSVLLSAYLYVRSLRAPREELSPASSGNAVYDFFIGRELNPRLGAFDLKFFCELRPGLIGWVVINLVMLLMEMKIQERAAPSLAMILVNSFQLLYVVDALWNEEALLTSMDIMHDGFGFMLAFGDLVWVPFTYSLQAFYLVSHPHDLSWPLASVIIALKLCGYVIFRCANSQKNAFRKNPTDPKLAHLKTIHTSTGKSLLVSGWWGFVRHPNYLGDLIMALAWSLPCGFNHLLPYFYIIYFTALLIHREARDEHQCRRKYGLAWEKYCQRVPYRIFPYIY
# cond: competitor 25 μM
Entries and their measured SILAC ratio, Lbr follow.

Reference set (3 entries):
CN1CCN(C(=O)c2[nH]c3ccc([N+](=O)[O-])cc3c2-c2ccccc2)CC1; 1.3
O=C(/C=C/c1cccnc1)NCCCCC1CCN(C(=O)c2ccccc2)CC1 [FK-866, reference compound]; 1.0
C=CCN(C)CCCCCCOc1ccc(C(=O)c2ccc(Br)cc2)c(F)c1 [Ro 48-8071, reference compound]; 1.9

Input: Value lookup for SILAC ratio, Lbr; key = "CN1CCN(C(=O)c2c(-c3ccccc3)c3cc([N+](=O)[O-])ccc3n2C)CC1"
Output: 1.2

###

# target.desc: AEA-DA lipid probe targets in Neuro2a cells (Mus musculus, UniProt Q5XJY4)
# Sequence (Q5XJY4 51-377): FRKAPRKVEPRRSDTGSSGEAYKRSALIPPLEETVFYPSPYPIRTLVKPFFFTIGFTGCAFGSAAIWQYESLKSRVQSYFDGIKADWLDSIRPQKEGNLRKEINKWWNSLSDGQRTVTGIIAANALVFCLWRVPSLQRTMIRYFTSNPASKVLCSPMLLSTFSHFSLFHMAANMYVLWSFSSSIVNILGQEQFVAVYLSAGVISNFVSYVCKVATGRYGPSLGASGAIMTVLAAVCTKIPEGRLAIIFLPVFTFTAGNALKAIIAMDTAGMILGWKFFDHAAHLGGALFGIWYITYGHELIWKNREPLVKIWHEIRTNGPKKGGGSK
# cond: competitor 25 μM
Measured SILAC ratio Parl values are reported for all entries that follow.

Input: Which SILAC ratio Parl is listed for "CN1CCN(C(=O)c2[nH]c3ccc([N+](=O)[O-])cc3c2-c2ccccc2)CC1" ?
Output: 1.4

Input: Give its SILAC ratio Parl value. Item: C=CCN(C)CCCCCCOc1ccc(C(=O)c2ccc(Br)cc2)c(F)c1 [Ro 48-8071, reference compound]
Output: 1.1

Input: Can you share its SILAC ratio Parl? I mean this compound: O=C(/C=C/c1cccnc1)NCCCCC1CCN(C(=O)c2ccccc2)CC1 [FK-866, reference compound]
Output: 1.3

Input: What does the record list as SILAC ratio Parl for "CN1CCN(C(=O)c2c(-c3ccccc3)c3cc([N+](=O)[O-])ccc3n2C)CC1" ?
Output: 1.3
